test.target: human adenosine A2A receptor (Homo sapiens, UniProt P29274)
Construct: expressed in transfected cells; host or cells: CHO cells, Semliki Forest virus expression system; membrane preparation
Sequence (P29274 whole entry): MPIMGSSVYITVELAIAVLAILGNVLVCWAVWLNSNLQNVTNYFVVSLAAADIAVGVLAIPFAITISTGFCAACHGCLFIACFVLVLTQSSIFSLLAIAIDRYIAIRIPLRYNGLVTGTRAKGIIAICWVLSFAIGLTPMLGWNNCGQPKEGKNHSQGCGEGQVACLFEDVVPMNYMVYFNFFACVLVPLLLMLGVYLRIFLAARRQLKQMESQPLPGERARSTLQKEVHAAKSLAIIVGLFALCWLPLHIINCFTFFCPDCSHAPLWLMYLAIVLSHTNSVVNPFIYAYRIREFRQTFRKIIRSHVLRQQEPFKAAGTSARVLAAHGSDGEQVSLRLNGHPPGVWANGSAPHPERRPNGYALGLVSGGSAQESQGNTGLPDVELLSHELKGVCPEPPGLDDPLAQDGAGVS
experiment.notes: Human adenosine A2A receptor [3H]-SCH-58261 binding assay
measurement.conditions: affinity to human adenosine A2A receptor; read-out: Ki HA2A
property.label: Ki

Query: Field request: Ki | item: `Nc1cc(C(=O)NCc2ccccc2Br)cc2nc(-c3ccco3)nn12`
Response: 2.6 nM

Query: Param item: `C[C@@H]1CN(C(=O)c2cc(N)n3nc(-c4ccc(Br)o4)nc3c2)C[C@H](C)O1`
Response: 7.7 nM

Query: Param item: `CCN(C(=O)c1cc(N)n2nc(-c3ccc(C)s3)nc2c1)C1CCCCC1`
Response: 8.9 nM

* * *

Could you please report measured selectivity (A1/A2a) for the items listed next?
test.target: human adenosine A2A receptor (Homo sapiens, UniProt P29274)
Construct: expressed in transfected cells; host or cells: CHO cells, Semliki Forest virus expression system; membrane preparation
experiment.notes: Human adenosine A2A receptor [3H]-SCH-58261 binding assay
measurement.conditions: calculated ratio of the affinity to the HA1 receptor to the HA2a receptor
The answer should be written as a number, with no unit following it.

Query: Field request: selectivity (A1/A2a) | item: `CCN(CC)C(=O)c1cc(N)n2nc(-c3ccccc3O)nc2c1`
Response: 21.1

Query: Param item: `Nc1cc(C(=O)NCc2ccccc2Br)cc2nc(-c3cccnc3)nn12`
Response: 9.2

Query: Param item: `COc1cc(CNC(=O)c2cc(N)n3nc(-c4nccs4)nc3c2)cc(OC)c1OC`
Response: 10.9

Query: Param item: `CCN(C(=O)c1cc(N)n2nc(-c3ccc(C)s3)nc2c1)C1CCCCC1`
Response: 27.8

Query: Param item: `CC(C)N(Cc1ccccc1)C(=O)c1cc(N)n2nc(-c3cccnc3)nc2c1`
Response: 3.2

* * *

test.target: HA1 adenosine receptor (Homo sapiens, UniProt P30542)
Sequence (P30542 whole entry): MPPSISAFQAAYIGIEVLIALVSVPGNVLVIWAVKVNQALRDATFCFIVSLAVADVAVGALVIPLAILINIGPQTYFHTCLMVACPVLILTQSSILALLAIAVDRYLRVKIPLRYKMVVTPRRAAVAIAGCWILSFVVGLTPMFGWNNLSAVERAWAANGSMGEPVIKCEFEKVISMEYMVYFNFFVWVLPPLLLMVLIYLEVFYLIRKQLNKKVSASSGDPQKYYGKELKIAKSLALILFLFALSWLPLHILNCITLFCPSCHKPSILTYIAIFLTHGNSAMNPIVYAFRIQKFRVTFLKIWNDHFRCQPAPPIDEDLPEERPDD
experiment.notes: Human adenosine A1 receptor affinity (Ki hA1)
Format: binding
measurement.conditions: affinity to human adenosine A1 receptor
property.label: pKi
Reminder that pKi means the negative base-10 logarithm of the concentration expressed in mol/L.

Query: Field request: pKi | item: Nc1cc(C(=O)NC2CCCCC2)cc2nc(-c3ccc(Br)o3)nn12 [Example 165]
Response: 6.11

Query: Param item: Cc1ccc(-c2nc3cc(C(=O)NC(C)c4ccccc4)cc(N)n3n2)s1 (stereo not drawn) [Example 198]
Response: 6.95

Query: Param item: CCCCNC(=O)c1cc(N)n2nc(-c3ccc(C)o3)nc2c1 [Example 137]
Response: 6.66

Query: Param item: CCCCN(CCC)C(=O)c1cc(N)n2nc(-c3ccc(Br)o3)nc2c1 [Example 342]
Response: 6.85

Query: Param item: CCN(CC)C(=O)c1cc(N)n2nc(-c3ccc(Br)o3)nc2c1 [Example 21]
Response: 6.63

Query: Param item: Cc1ccc(-c2nc3cc(C(=O)N4CCCCC4)cc(N)n3n2)o1 [Example 28]
Response: 6.16

Query: Param item: Nc1cc(C(=O)NCc2ccccc2Cl)cc2nc(-c3ccccc3)nn12 [Example 218]
Response: 6.93

Query: Param item: Nc1cc(C(=O)NCc2ccccc2)cc2nc(-c3ccccc3)nn12 [Example 216]
Response: 6.83

Query: Param item: CN(Cc1ccccc1)C(=O)c1cc(N)n2nc(-c3nccs3)nc2c1 [Example 204]
Response: 6.49
